Data credit: PubChem BioAssay AID1027

Biological target: Luciferin 4-monooxygenase (Photinus pyralis)
Assay: FLuc activators, initial screening, artefact control for FLuc-dependent activation tests, biochemical, ATPlite luminescence (AID 1027)
Conditions: ATPlite luciferase biochemical, 10 min, at 10 µM, active compounds read high, 0 = ATP-free wells, 1 = DMSO control
Screen size: about 200,000 compounds; fewer than 10 were called active. The list is a sample of the results.
# activation factor listing for each entry below
Respond numerically, and do not add a unit to the figure.

Compound | activation factor
O=C(Cn1nnc2ccccc2c1=O)NCc1ccc(Cl)cc1 | 1
Cc1ccc(NC(=O)CSc2nc(CSc3ccc(C)cc3)cc(=O)[nH]2)cc1 | 0.9

Q. With Luciferin 4-monooxygenase (Photinus pyralis) as the test system, provide measured activation factor for this compound: O=C(N/N=C/c1ccc(Cl)cc1)c1nc2ccc([N+](=O)[O-])cc2c(=O)[nH]1
A. 1

Q. Given O=C(CC1Nc2ccccc2NC1=O)Nc1ccccc1NC(=O)CC1Nc2ccccc2NC1=O (stereo unspecified) , report its activation factor on Luciferin 4-monooxygenase (Photinus pyralis).
A. 0.9

Q. Provide the reported activation factor (system: Luciferin 4-monooxygenase (Photinus pyralis)) for O=C1N/C(=C/c2cccs2)C(=O)N1Cc1ccc(F)cc1
A. 1

Q. Name the recorded activation factor of CNC(=O)c1[nH]cnc1C(=O)N[C@@H](CC(C)C)C(=O)OCc1ccccc1 , assay system Luciferin 4-monooxygenase (Photinus pyralis).
A. 1.1

Q. Please indicate recorded activation factor of CCn1nc(C)cc1C(=O)N1CCCC(C(=O)c2cccc(OC)c2)C1 (stereo unspecified) measured with Luciferin 4-monooxygenase (Photinus pyralis).
A. 0.9

Q. Specify activation factor for O=C1CCCN1CCCNC(=S)Nc1ccc(F)c(Cl)c1 , system Luciferin 4-monooxygenase (Photinus pyralis).
A. 1

Q. # assay system Luciferin 4-monooxygenase (Photinus pyralis): give activation factor of Fc1cc(Br)ccc1NC(=S)Nc1cccnc1
A. 1.1

Q. Name the value of activation factor reported for COc1cc(/C=N\NC(=O)c2nonc2N)c(OC)cc1Br when tested on Luciferin 4-monooxygenase (Photinus pyralis).
A. 1

Q. // fetch activation factor; item: CCCc1cc(-c2nc(-c3ccc(C)cc3)cs2)ccn1 ; system: Luciferin 4-monooxygenase (Photinus pyralis)
A. 1
